B1: KLHL14 (parent)
chain: YVIGGRNETGYLSSVECYNLETNE

# Variants of: B1
# PROTOCOL_NOTES: protein stability index of a GFP-peptide fusion (GPS, HEK-293T) (PSI 1-6); higher = more stable;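 further: lentivirally expressed fusions sorted by FACS into six bins by GFP to DsRed ratio, PSI derived from sequencing read proportions per bin multiplied by bin number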
# CONDITION_PARAMETERS: c terminus: a fixed tail appended
Record true (1) whenever protein stability index is at 2 or higher; record false (0) when lower.

Worked examples follow.
YVIGGRNETGYLFSVECYNLETNE [S13F]; true (1)
YVIGGRNETGYLSAVECYNLETNE [S14A]; false (0)
YVIGGRNETGYLSSVESYNLETNE [C17S]; true (1)
VVIGGRNETGYLSSVECYNLETNE [Y1V]; true (1)
YVIGGRNETGSLSSVECYNLETNE [Y11S]; true (1)

Please look at the following variant next.
Request: Test whether the variant YLIGGRNETGYLSSVECYNLETNE [V2L] records protein stability index of 2 or higher.
Response: true (1)
